# Test system: RPMI-8226 leukemia
# Assay Procedure: NCI-60 one-dose screen, 48 h
# Settings: 10 µM unless noted
Compounds without any hit were thinned out: in the full panel of roughly 83,000, 20% have a hit. Activity calls are given as the source filed them. The calls were made as follows: active = growth percent below 10; inactive = the rest.
Possible outcomes: Yes for active, No for inactive

1. FC(F)c1nc2ccccc2n1-c1nc(N2CCOCC2)nc(N2CCOCC2)n1 = Yes
2. Cc1c(NC(=O)OC[C@@H]2COCCN2)cn2ncnc(Nc3ccc4c(cnn4Cc4cccc(F)c4)c3)c12 = Yes
3. Nc1ncnc2c1c(-c1cccc(OCc3ccccc3)c1)cn2C1CC(CN2CCC2)C1 (stereo not drawn) = Yes
4. Cc1cc(O)c2c(c1)C1OC(=O)CCCCCN1C1=C2C(=O)c2cccc(OC3CC(O)C(O)C(C)O3)c2C1=O (stereo not drawn) = No
5. CC1(O)CCC2CC3OC3(C)CCC3OC3(C)C(O)CC1C2(C)C (stereo not drawn) = No
6. O=C(c1ccc(/C=C/c2n[nH]c3ccccc23)cc1)N1CCNCC1 = No
7. Cc1nc(-c2cn3c(n2)-c2ccc(-c4cnn(C(C)(C)C(N)=O)c4)cc2OCC3)n(C(C)C)n1 = No
8. CC(=O)c1cnc2ccc(-c3cc(Cl)c(O)c(Cl)c3)nc2c1NC1CCC(CN(C)C)CC1 (stereo not drawn) = Yes
9. COc1ccc2c(CCC(c3ccccc3)c3ccccc3)c3[n+](cc2c1OC)CCc1cc2c(cc1-3)OCO2 = Yes
10. Clc1nc(Cl)c2ncn(CC#CCn3cnc4c(Cl)nc(Cl)nc43)c2n1 = Yes
11. Cc1cc2c(-c3nc4ccccn4c3Nc3cccc4ccccc34)c(O)c(O)cc2c(O)c1-c1c(C)cc2c(-c3nc4ccccn4c3Nc3cccc4ccccc34)c(O)c(O)cc2c1O = No
12. CO[C@@H](C(=O)N1Cc2[nH]nc(NC(=O)c3ccc(N4CCN(C)CC4)cc3)c2C1)c1ccccc1 = No
13. Cn1cc(-c2ccc(F)c(C(F)(F)F)c2)nc1C1CCN(c2ncnc3[nH]ncc23)CC1 = No
14. COCCOc1cnc2ccn([C@H](C)c3nnc4c(F)cc(-c5cnn(C)c5)cn34)c(=O)c2c1 = No
15. O=C(N/N=C/c1ccc(Cl)cc1)c1cc(-c2cc3ccccc3o2)nn1-c1ccccc1 = No
16. CC(=O)O[C@]1(C)C[C@H](O)[C@]2(O)C=CO[C@H](O[C@@H]3O[C@H](CO)[C@@H](O)[C@H](O)[C@H]3O)[C@@H]21 = No
17. CCCCCC(=O)OCc1ccc(Cl)c(Cl)c1 = No
18. O=C1CSC(c2c(F)cccc2Cl)N1NC(=O)C(O)(c1ccccc1)c1ccccc1 (stereo not drawn) = No
19. C/C=C/C=N/NC(=S)Nc1ccccc1 = No
20. N#Cc1c(-c2ccc(C(F)(F)F)cc2)c(F)c(NCCC2CCC(O)C2)n2c1nc1ccccc12 (stereo not drawn) = No
21. Cc1c(Cn2c(C)nc3c(C(=O)O)cc(N4CCOCC4)cc32)cccc1C(F)(F)F = No
22. O=C1CC(c2cccc(F)c2)c2c(n[nH]c2-c2ccc(Cl)cc2)N1 (stereo not drawn) = No
23. CNC(=O)c1cc(Oc2cccc3nc(Nc4ccc(Cl)c(F)c4)ccc23)ccn1 = No
24. Cc1c(N)ccc(-c2ccc(N)c(C)c2S(=O)(=O)O)c1S(=O)(=O)O = No
25. COc1cc2c3c(c1)nc(C)n3CCC2 = No
26. Cc1cc(N2CCCC2)nc(N(CCCNc2ccnc3cc(Cl)ccc23)Cc2ccc3c(c2)OCO3)n1 = Yes
27. CN1CC[C@@H](c2c(O)cc(O)c3c(=O)cc(-c4ccccc4Cl)oc23)[C@@H]1CO = Yes
28. COc1cc(N2CCC(N(C)C)CC2)ccc1Nc1ncc(Cl)c(Nc2ccccc2P(C)(C)=O)n1 = No
29. C[C@@H]1COC(Nc2ccc3ncnc(Nc4ccc(OCc5nccs5)c(Cl)c4)c3c2)=N1 = No
30. Cc1cc(N(CCNc2ccnc3cc(Cl)ccc23)Cc2cccs2)nc(Cl)n1 = Yes
31. CCc1nc2cc(F)c(/C=C/C(=O)NO)cc2c(=O)n1CCc1ccccc1 = No
32. Cc1ccc(NC(=O)c2ccc(CN3CCN(C)CC3)cc2)cc1Nc1nc(-c2cccnc2)cs1 = No
33. CCN(CC)CCNC(=O)c1c(C)[nH]c(/C=C2\C(=O)Nc3ccc(F)cc32)c1C = Yes
34. O=C1C=CC2(NN=C(c3ccccc3)N2c2ccc(Cl)cc2)c2cccc(O)c21 (stereo not drawn) = No
35. COc1ccc(OC)c(NC2=C(SCCc3ccccc3)C(=O)c3ccccc3C2=O)c1 = No
36. CS(=O)(=O)N1CCN(Cc2cc3nc(-c4cccc5[nH]ncc45)nc(N4CCOCC4)c3s2)CC1 = No
37. Ic1ccccc1-c1ccccc1 = No
38. COCC(=O)NC/C=C/c1ccc2ncnc(Nc3ccc(Oc4ccc(C)nc4)c(C)c3)c2c1 = No
